Exercise: for every item that follows, state its recorded protein stability index.
B1: LOXL2 (parent)
chain: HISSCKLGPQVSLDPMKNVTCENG

# Variants of: B1
# method_notes: protein stability index of a GFP-peptide fusion (GPS, HEK-293T) (PSI 1-6); higher = more stable;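 also: lentivirally expressed fusions sorted by FACS into six bins by GFP to DsRed ratio, PSI derived from sequencing read proportions per bin multiplied by bin number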
# conditions_used: c terminus: a fixed tail appended
One number for each entry.

Examples from the recorded data:
{"columns": ["mutation_string", "reported"],
 "data": [
  ["E22G", 3.17],
  ["V19P", 4.2],
  ["D14R", 3.33],
  ["Q10E", 4.42],
  ["T20Y", 3.58],
  ["C5M", 4.2],
  ["H1R", 3.95],
  ["C5L", 4.32],
  ["G24N", 4.12],
  ["V11Q", 4.4]
]}

For every item below, please supply its protein stability index.
1. S3Q
2. H1S
3. Q10W
4. S12M
5. N23Y
6. C21H
7. H1D
8. G24Q

[reply]
3.92
4.14
2.08
3.57
3.35
4.03
4.33
4

Dear colleague, could you send me protein stability index for each of the items below? Thanks.
1. K6L
2. M16T
3. D14K

[reply]
4.22
4.04
3.5
